test system: breast cancer cell lines; assay: Cell viability by MTT assay in breast cancer cell lines; format: cell-based; conditions: 72 h, read-out: mean IC50, breast cancer cell viability
metric.name: IC50 (µM)

# compound, assay.value
measured = [
    ("CCN(CC)CCNc1ccc(C)c2sc3ccccc3c(=O)c12", 7.2),
    ("CCN(CC)CCCC(C)Nc1ccnc2cc(Cl)ccc12 (centres unmarked)", 66),
]
